# assay system: D2 receptor (Homo sapiens)
# Construct: expressed in transfected cells; host or cells: HEK293
# Sequence (P14416 whole entry): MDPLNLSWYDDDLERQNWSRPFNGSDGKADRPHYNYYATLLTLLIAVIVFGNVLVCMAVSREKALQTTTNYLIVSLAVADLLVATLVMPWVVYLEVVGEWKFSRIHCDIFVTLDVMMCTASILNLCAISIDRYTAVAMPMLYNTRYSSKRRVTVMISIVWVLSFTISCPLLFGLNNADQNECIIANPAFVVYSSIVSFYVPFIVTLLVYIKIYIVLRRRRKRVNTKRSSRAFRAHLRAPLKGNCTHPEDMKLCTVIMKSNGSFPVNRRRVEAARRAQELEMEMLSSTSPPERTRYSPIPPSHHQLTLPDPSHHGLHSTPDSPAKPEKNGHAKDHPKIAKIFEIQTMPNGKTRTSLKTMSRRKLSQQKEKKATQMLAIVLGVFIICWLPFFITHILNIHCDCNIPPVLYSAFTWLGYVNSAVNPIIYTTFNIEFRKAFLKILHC
# test protocol: D2 receptor affinity assay (radioligand competition, 3H-7-OH-DPAT)
# Format: binding
# recorded conditions: cloned D2 receptor expressed in HEK293 cell line; 3H-7-OH-DPAT 1 nM
Below, each of the compounds is paired with its reported IC50 value.
Report only the number, with the unit nM understood.

# annotated cases, reported IC50 shown
compound | IC50, nM
c1ccc2c(CN3CCC(c4cccc5[nH]ncc45)C3)c[nH]c2c1 (stereo not drawn) | 10.2
c1ccc2c(CN3CCC(c4ccc5cn[nH]c5c4)C3)c[nH]c2c1 (stereo not drawn) | 298
O=S(=O)(CC(F)(F)F)Nc1cccc(C2CCN(Cc3c[nH]c4ccccc34)C2)c1 (stereo not drawn) | 639
Oc1cc(C2CCN(Cc3c[nH]c4ccccc34)C2)ccc1F (stereo not drawn) | 22.4

Find the recorded IC50 belonging to O=S(=O)(Nc1cccc(C2CCN(Cc3c[nH]c4ccccc34)C2)c1)c1cccs1 (stereo not drawn) and report it. 120

What measured IC50 goes with Oc1cccc(C2CCN(Cc3n[nH]c4ccccc34)C2)c1 (stereo not drawn) ? 6.83

Can you look up the measured IC50 of Oc1cccc(C2CCN(Cc3c[nH]c4ncccc34)C2)c1 (stereo not drawn) for me? 2.02

What value of IC50 has been recorded for this entry: c1ccc2c(CN3CCC(c4ccc5nc[nH]c5c4)C3)c[nH]c2c1 (stereo not drawn) 461

// lookup IC50 for Oc1cccc(C2CCN(Cc3c[nH]c4ccccc34)C2)c1 (racemic) 14

----------
# assay system: D2 receptor (Homo sapiens)
# Construct: expressed in transfected cells; host or cells: HEK293
# test protocol: D2 receptor function assay, calcium mobilization (FLIPR)
# Type: cell-based
# recorded conditions: HEK293, antagonism of D2 receptor
assay readout: IC50 (nM)
Quick note: give the figure in nM, leave out the unit.

In the examples that follow, each entry is paired with its recorded IC50.
compound | value
c1ccc2c(CN3CCC(c4ccc5cn[nH]c5c4)C3)c[nH]c2c1 (stereo not drawn) | 471
Oc1cccc(C2CCN(Cc3n[nH]c4ccccc34)C2)c1 (stereo not drawn) | 2.28
O=S(=O)(Nc1cccc(C2CCN(Cc3c[nH]c4ccccc34)C2)c1)c1cccs1 (stereo not drawn) | 5.4
Oc1cccc(C2CCN(Cc3c[nH]c4ccccc34)C2)c1 (racemic) | 2
c1ccc2c(CN3CCC(c4ccc5nc[nH]c5c4)C3)c[nH]c2c1 (stereo not drawn) | 269

# context switch: different compound, same IC50
Short answer please: IC50, D2 receptor (Homo sapiens), entry Oc1cccc(C2CCN(Cc3c[nH]c4ncccc34)C2)c1 (stereo not drawn) 1.99

----------
Listing of recorded Distance resulting from the activity, Last 30 min by entry.
# Test system: Amphetamine-induced high locomotor activity in mice
# test protocol: Amphetamine-induced high locomotor activity (LMA) in mice
# Assay type: in vivo
# Design: unit not given here
# recorded conditions: Amphetamine 1.0 mg/kg s.c.; 5 mg/kg p.o. (low dose group; olanzapine positive control); male ICR mice
Respond numerically, and do not add a unit to the figure.

Worked examples, 2 compounds total:
compound | value
Oc1cccc(C2CCN(Cc3c[nH]c4ccccc34)C2)c1 (racemic) | 257329
O=S(=O)(CC(F)(F)F)Nc1cccc(C2CCN(Cc3c[nH]c4ccccc34)C2)c1 (stereo not drawn) | 318973

Now look at this one.
Return reported Distance resulting from the activity, Last 30 min; argument: Cc1cc2c(s1)Nc1ccccc1N=C2N1CCN(C)CC1 [Olanzapine, olanzapine, reference compound] 158673

These data points were gathered from patent US20210024498A1.
